# Test system: ICR mice
# experiment.notes: Pulmonary toxicity (pulmonary fibrosis) in mice, intratracheal instillation
# Type: in vivo
# assay.setup: 16 μg/50 μl/mouse intratracheally; sacrificed 4 weeks after instillation; score 0-6 points
Answer each item with its documented Grade: total score of pulmonary fibrosis/total number of samples.

The following compounds have reported results that may help.
- compound: "Cc1c(N)nc(C(CC(N)=O)NCC(N)C(N)=O)nc1C(=O)NC(C(=O)NC(C)C(O)C(C)C(=O)NC(C(=O)NCCc1nc(-c2nc(C(=O)NCCCNC(C)c3ccccc3)cs2)cs1)C(C)O)C(OC1OC(CO)C(O)C(O)C1OC1OC(CO)C(O)C(OC(N)=O)C1O)c1c[nH]cn1 (stereo not shown) [PEP, reference compound]"
  result: "36/24"
- compound: "Cc1c(N)nc(C(CC(N)=O)NCC(N)C(N)=O)nc1C(=O)NC(C(=O)NC(C)C(O)C(C)C(=O)NC(C(=O)NCCc1nc(-c2nc(C(=O)NCCC[N+](C)(C)CCCN(Cc3ccccc3)Cc3ccccc3)cs2)cs1)C(C)O)C(OC1OC(CO)C(O)C(O)C1OC1OC(CO)C(O)C(OC(N)=O)C1O)c1cnc[nH]1 (stereo not shown)"
  result: "2/24"

Give one value of Grade: total score of pulmonary fibrosis/total number of samples per listed compound.
1. Cc1c(N)nc(C(CC(N)=O)NCC(N)C(N)=O)nc1C(=O)NC(C(=O)NC(C)C(O)C(C)C(=O)NC(C(=O)NCCc1nc(-c2nc(C(=O)NCCC[N+](C)(CCCN(Cc3ccccc3)Cc3ccccc3)Cc3ccccc3)cs2)cs1)C(C)O)C(OC1OC(CO)C(O)C(O)C1OC1OC(CO)C(O)C(OC(N)=O)C1O)c1cnc[nH]1 (stereo not shown)
2. Cc1c(N)nc(C(CC(N)=O)NCC(N)C(N)=O)nc1C(=O)NC(C(=O)NC(C)C(O)C(C)C(=O)NC(C(=O)NCCc1nc(-c2nc(C(=O)NCCCN(C)CCCNCc3ccc(OCc4ccccc4)c(OCc4ccccc4)c3)cs2)cs1)C(C)O)C(OC1OC(CO)C(O)C(O)C1OC1OC(CO)C(O)C(OC(N)=O)C1O)c1cnc[nH]1 (stereo not shown)

Ans.
1: 4/27; 2: 1/24

Dear colleague, could you please provide Grade: total score of pulmonary fibrosis/total number of samples for the compounds listed below?
1. Cc1c(N)nc(C(CC(N)=O)NCC(N)C(N)=O)nc1C(=O)NC(C(=O)NC(C)C(O)C(C)C(=O)NC(C(=O)NCCc1nc(-c2nc(C(=O)NCCCN(C)CCCNCc3ccc([N+](=O)[O-])cc3)cs2)cs1)C(C)O)C(OC1OC(CO)C(O)C(O)C1OC1OC(CO)C(O)C(OC(N)=O)C1O)c1cnc[nH]1 (stereo not shown) [MNBZ, reference compound]
2. Cc1c(N)nc(C(CC(N)=O)NCC(N)C(N)=O)nc1C(=O)NC(C(=O)NC(C)C(O)C(C)C(=O)NC(C(=O)NCCc1nc(-c2nc(C(=O)NCCCN(C)CCCNCC(c3ccccc3)c3ccccc3)cs2)cs1)C(C)O)C(OC1OC(CO)C(O)C(O)C1OC1OC(CO)C(O)C(OC(N)=O)C1O)c1cnc[nH]1 (stereo not shown)
3. Cc1c(N)nc(C(CC(N)=O)NCC(N)C(N)=O)nc1C(=O)NC(C(=O)NC(C)C(O)C(C)C(=O)NC(C(=O)NCCc1nc(-c2nc(C(=O)NCCCN(C)CCCNCc3ccc(Cl)cc3Cl)cs2)cs1)C(C)O)C(OC1OC(CO)C(O)C(O)C1OC1OC(CO)C(O)C(OC(N)=O)C1O)c1cnc[nH]1 (stereo not shown)

Ans.
["28/27", "2/27", "6/24"]
